Below, each of the compounds is paired with its reported MIC value.
System: Salmonella typhimurium
Experiment: Antibacterial activity against Salmonella typhimurium assessed as inhibition of visible bacterial growth incubated for 18 to 20 hrs by microbroth dilution method
Type: functional, Salmonella enterica subsp. enterica serovar Typhimurium
Details: Salmonella enterica; time 18-20 hrs

{"moleculeSmiles": "CC(=O)OC[C@H]1O[C@@H](NC(=S)Nc2nc(-c3ccc(C)cc3)cs2)[C@H](OC(C)=O)[C@@H](OC(C)=O)[C@@H]1OC(C)=O", "MIC / µg/mL": 25}
{"moleculeSmiles": "CC(=O)OC[C@H]1O[C@@H](NC(=S)Nc2nc(-c3ccccc3)cs2)[C@H](OC(C)=O)[C@@H](OC(C)=O)[C@@H]1OC(C)=O", "MIC / µg/mL": 400}
{"moleculeSmiles": "CCc1ccc(-c2csc(NC(=S)N[C@@H]3O[C@H](COC(C)=O)[C@@H](OC(C)=O)[C@H](OC(C)=O)[C@H]3OC(C)=O)n2)cc1", "MIC / µg/mL": 100}
{"moleculeSmiles": "COc1ccc(-c2csc(NC(=S)N[C@@H]3O[C@H](COC(C)=O)[C@@H](OC(C)=O)[C@H](OC(C)=O)[C@H]3OC(C)=O)n2)cc1", "MIC / µg/mL": 6.25}
{"moleculeSmiles": "CC(=O)OC[C@H]1O[C@@H](NC(=S)Nc2nc(-c3ccc(Cl)cc3)cs2)[C@H](OC(C)=O)[C@@H](OC(C)=O)[C@@H]1OC(C)=O", "MIC / µg/mL": 12.5}
{"moleculeSmiles": "CC(=O)OC[C@H]1O[C@@H](NC(=S)Nc2nc(-c3cccc([N+](=O)[O-])c3)cs2)[C@H](OC(C)=O)[C@@H](OC(C)=O)[C@@H]1OC(C)=O", "MIC / µg/mL": 3.12}
{"moleculeSmiles": "O=C(O)c1cn(C2CC2)c2cc(N3CCNCC3)c(F)cc2c1=O", "MIC / µg/mL": 1.56}
{"moleculeSmiles": "COc1ccc(-c2csc(NC(=S)N[C@@H]3O[C@H](COC(C)=O)[C@@H](OC(C)=O)[C@H](OC(C)=O)[C@H]3OC(C)=O)n2)cc1[N+](=O)[O-]", "MIC / µg/mL": 50}
{"moleculeSmiles": "CC(=O)OC[C@H]1O[C@@H](NC(=S)Nc2nc(-c3ccc(Br)cc3)cs2)[C@H](OC(C)=O)[C@@H](OC(C)=O)[C@@H]1OC(C)=O", "MIC / µg/mL": 0.78}

====

Test system: Klebsiella pneumoniae
Experiment: Antibacterial activity against Klebsiella pneumoniae assessed as inhibition of visible bacterial growth incubated for 18 to 20 hrs by microbroth dilution method
Assay type: functional
Conditions: time 18-20 hrs
measuredProperty: log10(MIC) (log10 of the value in µg/mL)

{"moleculeSmiles": "CCc1ccc(-c2csc(NC(=S)N[C@@H]3O[C@H](COC(C)=O)[C@@H](OC(C)=O)[C@H](OC(C)=O)[C@H]3OC(C)=O)n2)cc1", "observedMeasurement": 1.70}
{"moleculeSmiles": "COc1ccc(-c2csc(NC(=S)N[C@@H]3O[C@H](COC(C)=O)[C@@H](OC(C)=O)[C@H](OC(C)=O)[C@H]3OC(C)=O)n2)cc1", "observedMeasurement": 0.19}
{"moleculeSmiles": "CC(=O)OC[C@H]1O[C@@H](NC(=S)Nc2nc(-c3ccc(Br)cc3)cs2)[C@H](OC(C)=O)[C@@H](OC(C)=O)[C@@H]1OC(C)=O", "observedMeasurement": 0.80}
{"moleculeSmiles": "CC(=O)OC[C@H]1O[C@@H](NC(=S)Nc2nc(-c3ccc(C)cc3)cs2)[C@H](OC(C)=O)[C@@H](OC(C)=O)[C@@H]1OC(C)=O", "observedMeasurement": 2.30}
{"moleculeSmiles": "CC(=O)OC[C@H]1O[C@@H](NC(=S)Nc2nc(-c3cccc([N+](=O)[O-])c3)cs2)[C@H](OC(C)=O)[C@@H](OC(C)=O)[C@@H]1OC(C)=O", "observedMeasurement": 0.49}
{"moleculeSmiles": "CC(=O)OC[C@H]1O[C@@H](NC(=S)Nc2nc(-c3ccccc3)cs2)[C@H](OC(C)=O)[C@@H](OC(C)=O)[C@@H]1OC(C)=O", "observedMeasurement": 1.40}
{"moleculeSmiles": "COc1ccc(-c2csc(NC(=S)N[C@@H]3O[C@H](COC(C)=O)[C@@H](OC(C)=O)[C@H](OC(C)=O)[C@H]3OC(C)=O)n2)cc1[N+](=O)[O-]", "observedMeasurement": -0.11}
{"moleculeSmiles": "O=C(O)c1cn(C2CC2)c2cc(N3CCNCC3)c(F)cc2c1=O", "observedMeasurement": 0.19}
{"moleculeSmiles": "CC(=O)OC[C@H]1O[C@@H](NC(=S)Nc2nc(-c3ccc(Cl)cc3)cs2)[C@H](OC(C)=O)[C@@H](OC(C)=O)[C@@H]1OC(C)=O", "observedMeasurement": 1.10}
